// provenance: patent US20240067748A1

Form field: Kd (one value per entry).
# study_target: T1, human TROP2 protein (Sino Biological, #10428-H08H) (human, UniProt P09758 27-274)
# T1 construct: bought protein; also called human Trop2 protein antigen (His tag); not shown: His tag
# T1 sequence (looked up): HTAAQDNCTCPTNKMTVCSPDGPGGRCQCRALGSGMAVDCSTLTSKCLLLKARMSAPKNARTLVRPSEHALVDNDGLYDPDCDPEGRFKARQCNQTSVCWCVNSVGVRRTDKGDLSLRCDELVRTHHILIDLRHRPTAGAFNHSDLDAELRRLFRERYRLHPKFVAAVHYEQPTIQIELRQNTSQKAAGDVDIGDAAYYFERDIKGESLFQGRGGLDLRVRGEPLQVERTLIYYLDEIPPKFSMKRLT
# assay_name: SPR, Biacore T200, antigen immobilised on CM5 chip
Report field: quantity (unit follows the number).

Some solved entries appear below for comparison.
comparative example 2 antibody Tab (hRS7) (antibody, human IgG1, kappa, V domains shown, prepared on the basis of sacituzumab govitecan (ChemPartner, #T07-001); naked antibody) VH: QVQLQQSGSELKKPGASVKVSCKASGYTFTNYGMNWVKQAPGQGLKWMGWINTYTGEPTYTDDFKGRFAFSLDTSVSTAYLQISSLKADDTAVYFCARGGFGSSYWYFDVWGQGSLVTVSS VL: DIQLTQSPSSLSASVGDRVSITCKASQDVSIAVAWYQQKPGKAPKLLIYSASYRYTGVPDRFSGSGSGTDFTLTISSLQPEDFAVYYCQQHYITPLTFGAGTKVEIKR ... 601 pM
PR001166 (antibody, human IgG1, kappa, V domains shown, fully human IgG1/kappa; also called antibody No. (27)) VH: QVQLQESGPGLVKPSETLSLTCAVSGYSISSGYFWAWIRQPPGKGLEWIGSIYHSGRTHYNPSLKSRVIISLDTSKNQFSLKLRSVTAADSAVYYCAREGYASGSYYWGQGTLVTVSS VL: EIVMTQSPATLSVSPGERATLSCRSSQSVNNYLAWFQQKPGQAPRLLIYDSSTRATGIPARFSGSGSGTEFTLTISSLQSEDFAFYFCQQYENWPLTFGGGTKVEIKR ... 27.9 pM
PR001165 (antibody, human IgG1, kappa, V domains shown, fully human IgG1/kappa; also called antibody No. (26)) VH: QVQLVESGGGVVQPGRSLRLSCEASGFTFSHYGMHWVRQAPGKGLEWVAVIWYDGIKTYYVESVKGRFTISRDNSKNTLNLQMNRLRAEDTAVYYCARDGGFGESNYYGLDVWGQGTTVTVSS VL: DIQLTQSPSFLSASVGDRVTITCRASQGISSYLGWYQQKPGKAPKLLIYIASTLQSGVPSRFSGSGSGTEFTLTISSLQPEDFATYYCQQLNSYPYTFGQGTKLEIKR ... 495 pM

Please find the next binder below.
Query string: Quick check: Kd of PR001142 (antibody, human IgG1, kappa, V domains shown, fully human IgG1/kappa; also called antibody No. (9)) VH: QVQLQESGPGLVKPSGTLSLTCAVSGDSISSNNWWSWVRQPPGKGLEWIGEIYPGGNPNYNPSLKSRVTISVDKSKNQFSLKLNSVTAADTAVYYCARGSGVISYFDYWGQGTLVTVSS VL: DIQMTQSPSTLSASVGDRVTITCRASQSIGHWLAWYQQKPGKAPKLLIYKASSLESGVPSRFRGSGSGTEFTLTISSLQPDDFATYYCQQYSSYSPITFGQGSRLEIKR ?
Result string: 530 pM
